Assay: BSK_3C_uPAR: BioMAP Diversity Plus: 3C Assay for Urokinase-type plasminogen activator receptor (uPAR) Biomarker Activity (AID 2282998)
Details: BioMAP 3C HUVEC, uPAR biomarker ELISA; actives raise or lower the signal
The source made the active and inactive calls. Rule for the calls: active = hit-call score of the fitted dose curve at least 0.9, where 1 is the maximum; inactive = score below 0.9.
Outcomes: label 1 = active, label 0 = inactive

molecule=CC(Cl)(Cl)C(=O)O assigned_class="label 0"
molecule=CCCN(CCC)c1c([N+](=O)[O-])cc(C(C)C)cc1[N+](=O)[O-] assigned_class="label 1"
molecule="ClC1=C(Cl)C2(Cl)C3C(Cl)C(Cl)CC3C1(Cl)C2(Cl)Cl (configuration not stated)" assigned_class="label 1"
molecule="CCCCC(CC)COP(=O)(Oc1ccccc1)Oc1ccccc1 (configuration not stated)" assigned_class="label 1"
molecule=C=CC(=O)OCC(CC)(COC(=O)C=C)COC(=O)C=C assigned_class="label 1"
molecule=Nc1ccc2ccccc2c1 assigned_class="label 0"
molecule=c1cc2c3c(cccc3c1)CC2 assigned_class="label 0"
